Entries and their melting point

| MOLECULE | melting point |
| --- | --- |
| COc1cc(Nc2c(C#N)cnc3cc(/C=C/CCCCN4CCOCC4)c(OC)cc23)c(Cl)cc1Cl | 99 to 100 °C |
| CC(=O)N(C)c1ccccc1CS(=O)c1nccn1-c1ccccn1 (stereo not given) | 188 to 189 °C |
| COc1cc(/C=C2/C(=O)OC(=O)C2=C(C)C)cc(OC)c1 | 161 to 162 °C |
| CC(=O)Nc1nc(OC(C)C)c2nc(Cl)ccc2n1 | 244 °C |
| CCC(=O)NCC(COS(C)(=O)=O)c1cccc2ccc(OC)cc12 (stereo not given) | 118 to 120 °C |
| O=c1c(C(F)(F)F)cn(C2CC(O)C(CO)O2)c(=O)n1C1CCCO1 (stereo not given) | 127 to 128 °C |
| CCOC(=O)c1ccc(/C=C(\C)c2ccc3c(c2)C(C)(C)CCO3)cc1 | 86 to 87 °C |
| O=C(NCCCCOc1cc(CN2CCCCC2)ccn1)c1cn[nH]c1 | 145 to 147 °C |
| COc1ccc(Sc2cnc(NC(C)=O)s2)cc1 | 190 to 191 °C |
| COc1ccc(-c2c([N+](=O)[O-])cnc3ccc(Cl)cc23)cc1OC | 188 to 190 °C |
